# System: Rattus norvegicus
# PROCEDURE_TEXT: Antihyperglycemic activity against sucrose-challenged streptozotocin-induced fasted Sprague-Dawley rat assessed as reduction in blood glucose at 100 mg/kg, po administered 30 mins before sucrose challenge measured after 5 hrs post sucrose dose relative to control
# Format: functional
# Set-up: scale not given: the % may be the effect or the level left
REPORTED_METRIC: Activity
Note: state the figure and append the unit.

Reference set, count: 6
{"columns": ["COMPOUND", "Activity"],
 "data": [
  ["CN(C)CCCOc1ccc(-c2nc3c(ccc4ccccc43)o2)cc1", "15.6%"],
  ["Cc1ccc(NCCCOc2ccc(-c3nc4c(ccc5ccccc54)o3)cc2)cc1", "14.6%"],
  ["CCCCN(C)CCCOc1ccc(-c2nc3c(ccc4ccccc43)o2)cc1", "7.8%"],
  ["CCN(CC)CCCOc1ccc(-c2nc3c(ccc4ccccc43)o2)cc1", "11.5%"],
  ["c1ccc2c(c1)ccc1oc(-c3ccc(OCCCN4CCCC4)cc3)nc12", "12.6%"],
  ["Cc1ccc(S(=O)(=O)NC(=O)NN2CC3CCCC3C2)cc1 (configuration not stated) [GLICLAZIDE]", "27.7%"]
]}

Turning now to a further compound:
Activity for c1ccc2c(c1)ccc1oc(-c3ccc(OCCCN4CCCCC4)cc3)nc12 is 13.4%
